meta.source: patent US20260242478A1

Target Entity: T1, PSMA Fab
T1 construct: Biotinylated and captured on neutravidin plates in the phage ELISA; also called Anti-PSMA Fab; 006 PSMA Fab
Protocol: clonal phage ELISA on captured PSMA Fab pre-incubated with PSMA antigen (competitor)
Readout Label: Phage binding ELISA signal, Anti-PSMA Fab with PSMA antigen

binder="EGVVCIPEWMCKGF [Phage-3032]" value_observed=0.0637
binder="VEPQCRPAWMCYGF (Peptide-180 library clone, tested as clonal phage supernatant (pIII display)) [Phage-3038]" value_observed=0.0668
binder="YTMVCRPAWMCQGF (Peptide-180 library clone, tested as clonal phage supernatant (pIII display)) [Phage-3042]" value_observed=0.0964
binder="PTVYCKPEWMCTGF (Peptide-180 library clone, tested as clonal phage supernatant (pIII display)) [Phage-3043]" value_observed=0.0869
binder="SLAVCKPSWMCAGF (Peptide-180 library clone, tested as clonal phage supernatant (pIII display)) [Phage-3044]" value_observed=0.0813
binder="EHLRCVPDWMCVGF (Peptide-180 library clone, tested as clonal phage supernatant (pIII display)) [Phage-3041]" value_observed=0.0886
binder="DYPLCRPEWMCMGF (Peptide-180 library clone, tested as clonal phage supernatant (pIII display)) [Phage-3040]" value_observed=0.0813
binder="IIPACVPPWMCSGF (Peptide-180 library clone, tested as clonal phage supernatant (pIII display)) [Phage-3036]" value_observed=0.212
